Data origin: PubChem BioAssay AID687038

# MEASUREMENT DESCRIPTION: miR-21 levels after miR-122 inhibitor treatment, dose response, selectivity assay for miR-122 inhibitor project, cell-based, Huh7, RT-qPCR, dry powder (AID 687038)
# SETUP CONDITIONS: Huh7 miR-21 levels, qRT-PCR, 48 h; series mostly up to 35 µM
Active and inactive are the calls of the source.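 The calls were made as follows: active = curve showing a falling signal whose half-maximal concentration is at most twice the top valid dose; inconclusive = flat curve with a moderate drop, or an unreliable fit; inactive = the rest.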
MEASURED METRIC: outcome

>>> observed_measurement("CO[C@@H]1CN(C)C(=O)c2cc(NC(=O)c3cccc(Oc4ccccc4)c3)ccc2OC[C@H](C)NC[C@@H]1C")
"inactive"
>>> observed_measurement("C[C@H](CO)N1C[C@H](C)[C@H](CN(C)C(=O)C2CCOCC2)Oc2cc(C#Cc3ccncc3)ccc2S1(=O)=O")
"inactive"
>>> observed_measurement("CN1C(=O)c2cc(NC(=O)c3cccc(F)c3)ccc2OC[C@@H]2O[C@@H](CC(=O)O)CC[C@@H]21")
"inactive"
>>> observed_measurement("CCCC#Cc1ccc2c(c1)O[C@H](CN(C)C(=O)COC)[C@H](C)CN([C@@H](C)CO)S2(=O)=O")
"inactive"
